Target: recombinant human PAD4 (human, UniProt Q9UM07 1-663)
Sequence (Q9UM07 whole entry): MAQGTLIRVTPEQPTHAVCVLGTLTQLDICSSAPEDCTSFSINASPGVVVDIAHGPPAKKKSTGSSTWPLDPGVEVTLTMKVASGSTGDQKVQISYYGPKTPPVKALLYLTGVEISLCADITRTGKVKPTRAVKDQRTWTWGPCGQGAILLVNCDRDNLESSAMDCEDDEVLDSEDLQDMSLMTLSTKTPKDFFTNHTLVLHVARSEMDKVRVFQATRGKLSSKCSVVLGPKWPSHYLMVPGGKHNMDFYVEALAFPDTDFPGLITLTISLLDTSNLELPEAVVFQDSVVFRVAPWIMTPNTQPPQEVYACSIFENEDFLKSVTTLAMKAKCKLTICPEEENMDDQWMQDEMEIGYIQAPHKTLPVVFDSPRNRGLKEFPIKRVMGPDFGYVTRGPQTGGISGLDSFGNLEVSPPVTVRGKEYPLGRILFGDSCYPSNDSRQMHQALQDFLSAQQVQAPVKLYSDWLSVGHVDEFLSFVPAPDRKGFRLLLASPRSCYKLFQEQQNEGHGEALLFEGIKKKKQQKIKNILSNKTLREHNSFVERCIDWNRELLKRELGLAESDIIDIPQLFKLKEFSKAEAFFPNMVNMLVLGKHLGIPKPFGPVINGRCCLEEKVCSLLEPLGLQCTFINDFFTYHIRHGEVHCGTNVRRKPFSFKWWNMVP
Experiment: cell-based or functional assay
Numbered stars: 1 amine (or outer) side, 2 acyl side, 3 side chain; on linkers, the order of the positions; unused ones are H or OH. Square brackets hold non-standard residues; d marks the D form. Orn(CA) = ornithine chloroamidine, O(CA), N=C(CCl)NCCC[C@H](N[*:1])C(=O)[*:2]
Recorded Metric: conversion of 0708-30 by PAD4, 50 µM inhibitor

| Binder | Data Value |
| --- | --- |
| Ac-FFDSKHFD[Orn(CA)]EWIWSD-NH2 (SMILES CC[C@H](C)[C@H](NC(=O)[C@H](Cc1c[nH]c2ccccc12)NC(=O)[C@H](CCC(=O)O)NC(=O)[C@H](CCCNC(=N)CCl)NC(=O)[C@H](CC(=O)O)NC(=O)[C@H](Cc1ccccc1)NC(=O)[C@H](Cc1c[nH]cn1)NC(=O)[C@H](CCCCN)NC(=O)[C@H](CO)NC(=O)[C@H](CC(=O)O)NC(=O)[C@H](Cc1ccccc1)NC(=O)[C@H](Cc1ccccc1)NC(C)=O)C(=O)N[C@@H](Cc1c[nH]c2ccccc12)C(=O)N[C@@H](CO)C(=O)N[C@@H](CC(=O)O)C(N)=O) [0741-01CA] | 31% |
